All values here come from the NIST ThermoML archive (doi:10.1021/je060139a).

Protocol Summary: xn = mol fraction of the nth substance listed
Settings: 318.15 K, Wilhelmy plate method, x1 = 0.7
# surface tension liquid-gas values compiled below
Please state the figure in mN/m; there is no need to write the unit.

Some compounds with known surface tension liquid-gas results, for comparison:
COC(=O)c1ccccc1 [methyl benzoate] + CCO :: 29.46
CCOC(=O)CC(C)C [ethyl 3-methylbutanoate] + CCO :: 21.3

Ask | Answer with the recorded surface tension liquid-gas of CCOC(=O)c1ccccc1O [ethyl 2-hydroxybenzoate] + CCO only.
Reply | 28.67

Ask | Answer with the recorded surface tension liquid-gas of CCOC(=O)CC(C)=O [ethyl 3-oxobutanoate] + CCO only.
Reply | 27.3

Ask | Answer with the recorded surface tension liquid-gas of CC(=O)OCc1ccccc1 [benzyl ethanoate] + CCO only.
Reply | 29.41

Ask | Answer with the recorded surface tension liquid-gas of CCC(=O)OCc1ccccc1 [benzyl propanoate] + CCO only.
Reply | 28.3
